Answer each item with its documented TGI.
Test system: MCF7 breast
PROTOCOL DETAILS: NCI tumour cell line growth inhibition, 48 h
Enter your answer as a number in µM; do not include the unit.

// query Please supply the value of reported TGI for the item COc1ccc2nc(C)cc(Nc3ccccc3O)c2c1
// result 51.2

// query Dear colleague, please send me the reported TGI for CCN(CC)CCC(=O)c1ccc(Oc2ccccc2)cc1 when you can.
// result 38.5

// query Determine its reported TGI: Clc1ccc2c(c1)-c1ccccc1C1=NCCN12
// result 8.58

====

Tested on: OVCAR-5 ovarian
PROTOCOL DETAILS: NCI tumour cell line growth inhibition, 48 h; in the data active means GI50 below about 0.43 µM; inactive means the rest
Allowed answers: y = active, n = inactive

// query For N#C[S-].[Au+].c1ccc(CN2[CH-]N(Cc3ccccc3)C(c3ccccc3)=C2c2ccccc2)cc1 , which call appears in the assay record?
// result n

// query Recorded test call requested for CN1CCn2c(c(Sc3ccc(C(=O)NO)cc3)c3ccccc32)C1=O
// result n

// query What call does the record list for OC(CNC1CCCC1)Cn1c2ccccc2c2ccccc21 (stereo not drawn) ?
// result n

// query Hi team, can someone confirm the assay call for CS(=O)(=O)Nc1cc(-c2ccc3ncnc(Nc4ccc5c(cnn5Cc5ccccc5F)c4)c3c2)cnc1Cl ?
// result n

// query Entry Clc1ccc2c(c1)-c1ccccc1C1=NCCN12 : call = ?
// result n

// query Record lookup: outcome of this test for COCCNC(=O)c1ccc(-c2nc3ccc4[nH]ncc4c3c3c2CCCC3)cc1 ?
// result n

// query Hi, sorry to bother you, what did the test record for O=C(CCCCCCC(=O)Nc1ccc2c(c1)/C(=C/c1ccc[nH]1)C(=O)N2)NO ?
// result n

// query So what was the verdict on O=C(N/N=C\c1ccc(N(CCCl)CCCl)cc1Cl)c1cccnc1 in this test?
// result n

// query Recorded call for CC1/C(=N/Nc2ccc([N+](=O)[O-])cc2)CC2C3(C)CCC2(C(C)C(=O)O)C(=O)C13 (stereo not drawn) ?
// result n

// query Test call for this compound, please: COC(=O)[C@@]1(O)C[C@H]2O[C@]1(C)n1c3ccccc3c3c4c(c5c6ccccc6n2c5c31)C(=O)NC4
// result y

// query Identify the outcome logged in this assay for the compound shown: COC(=O)c1cc2oc(/C=C3\SC(=S)N(NC(C)=O)C3=O)cc2n1Cc1ccccc1
// result n

// query Could you kindly confirm the outcome this assay logged for CN(C)CCNC(=O)c1cc2c3ccccc3[nH]c2c2ncccc12 ?
// result n

// query Name the outcome recorded for COc1ccc(/C=C/C(=O)c2cc3c(N)c(C(=O)Nc4ccccc4)sc3nc2C)cc1 in the assay.
// result y

Data provenance: PubChem BioAssay (NCI)
